Let's look at some variants and their measured abundance fitness.
B1: POU domain, class 4, transcription factor 2, residues 256 to 327; numbered along this chain, Q12837 (parent)
chain: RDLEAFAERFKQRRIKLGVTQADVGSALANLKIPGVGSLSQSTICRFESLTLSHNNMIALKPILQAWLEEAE

- Variants of: B1
- measurement notes: abundance fitness (aPCA) (normalised: wild type 0, dead -1); higher = more abundant; growth selection in yeast, the domain comes from the species named
- test context: Homo sapiens

{"residues": "RDLEAFAERFKQRRIKLGVTQADVGSALANLKIPGVGSLSQSTICRFESLTLSHNNVIALKPILQAWLEEAE", "abundance fitness": -0.54}
{"residues": "RDLEAFAERFKQRRIKLGVTQADVGSALANLKIPGVGSLSQSTICRFESLTLSHNRMIALKPILQAWLEEAE", "abundance fitness": -0.134}
{"residues": "RDLEAFAERFKQRRIKLGVTQADVGSALANLKIPGVGSLSQSTICVFESLTLSHNNMIALKPILQAWLEEAE", "abundance fitness": -0.899}
{"residues": "RDLEAFAERFKQRRIKLGVTQADVGSALANLKIPGVGSLEQSTICRFESLTLSHNNMIALKPILQAWLEEAE", "abundance fitness": -0.15}
{"residues": "RDLEAFAERFKQRRIKLGVTQADVGSALANLKIPGVGSLSQSTICRFESLTLSHMNMIALKPILQAWLEEAE", "abundance fitness": -0.253}

RDLEAFAERFKQRRIKLGVTQADVGSALANLMIPGVGSLSQSTICRFESLTLSHNNMIALKPILQAWLEEAE has a reported abundance fitness of -0.215

Record RDLEAFAERFKQRRIKLGVTQSDVGSALANLKIPGVGSLSQSTICRFESLTLSHNNMIALKPILQAWLEEAE , field abundance fitness: -0.082

Reported abundance fitness ( RDLEAFAERFKQRRIKLGVTQADVGSALANLKIPGVGSLSQSTICRFESLTLSHNNMIALKPILAAWLEEAE ) = -0.084

Per the record, RDLEAFAERFKQRRIKLGVTQADVGSQLANLKIPGVGSLSQSTICRFESLTLSHNNMIALKPILQAWLEEAE has abundance fitness of 0.068

Briefly, abundance fitness measured for RDLEAFAERFKQRRIKLGVTQADVGSALANLKEPGVGSLSQSTICRFESLTLSHNNMIALKPILQAWLEEAE : -0.205

get_value(item= RDLEAFAERFKQRRIKLGVTQADVGSALANLKIPGVGSLSQSTICRFETLTLSHNNMIALKPILQAWLEEAE , readout=abundance fitness) returns -0.035
